# folding stability dG unfold annotations
Assay: folding stability dG unfold from trypsin proteolysis; higher = more stable

[
  {
    "PRIMARY SEQUENCE": "SAMTLTLEIELDGVRVRLEAELELVLNEDGSLELKLKLKIEVEPLPPPKEVEVEEEEEEVEEVEFLPEESAG [r14_341_TrROS_Hall]",
    "folding stability dG unfold": "3.82 kcal/mol"
  },
  {
    "PRIMARY SEQUENCE": "SAGDVPVPATFEVELPGDGTARVTVVRHPGAAPGGFDTVRVEFRPGPTSSVTLTYRVPPGSAPVPFLGGSAG [r5_47_TrMRF]",
    "folding stability dG unfold": "0.535 kcal/mol"
  },
  {
    "PRIMARY SEQUENCE": "SAGGSASIKVTYRFPPDTTVEQAIEDLIAYLEAQTNVKISIPSYTVEREGDYLLVTADILIEPLPESAGGSA [r15_105_TrMRF]",
    "folding stability dG unfold": "4.18 kcal/mol"
  },
  {
    "PRIMARY SEQUENCE": "SAGGSAGGSAKEVIIEIKVPPNMTEDEIKELLKKKFKGKKVEIKIEKKKNKNGTLIYKVEVKSAGGSAGGSA [r18_360_TrROS_Hall]",
    "folding stability dG unfold": "2.6 kcal/mol"
  }
]

---

Assay: folding stability dG unfold (combined trypsin and chymotrypsin); higher = more stable
Kind request: treat 6 kJ/mol as inclusive, so folding stability dG unfold at 6 kJ/mol or higher is y, anything lower is n.

[
  {
    "PRIMARY SEQUENCE": "SAGGSAGGSAGGHYIRAEIEIKYEHPGNGQEQTMTIPIEIPIPPPPPVSAEDRAKQNGIGSAGGSAGGSAGG [r7_79_TrROS]",
    "CATEGORY LABEL": "n"
  },
  {
    "PRIMARY SEQUENCE": "SAGDVKIDIHYDEDGYIRVTVPYKSPHEAREEADELARWLAKQFGPKNIDINVEPHPNGMLVIRIPIKKSAG [r5_772_TrROS]",
    "CATEGORY LABEL": "y"
  },
  {
    "PRIMARY SEQUENCE": "SAGGKEVVIVFPLPENFEAEIFIPDRPVVRLENGLLVAVAPENVPALIVIRNPNGEELVLPVELLDLSAGGS [r8_72_TrMRF]",
    "CATEGORY LABEL": "n"
  },
  {
    "PRIMARY SEQUENCE": "SAGMVIELPNATITIETVPDPSSSNKVYRVTVTAHLPDGSRPVVVLTFPENVPIEEILKEAIKAAEELLSAG [r5_704_JUSTAS]",
    "CATEGORY LABEL": "y"
  },
  {
    "PRIMARY SEQUENCE": "SVPADAKPGVVPERVVLVIVVPPELLDEDGRLRPENLEIAAGEAAEAARKLREAFPDVPIEDVGVVVVEGSA [r9_943_TrMRF]",
    "CATEGORY LABEL": "n"
  },
  {
    "PRIMARY SEQUENCE": "SAGGSAGGSSPSDTVTAELRYVLPDGTPVERTLSLTDLPSSVTPEDTLTLPGPGLRARILAVTGSAGGSAGG [r6_561_JUSTAS]",
    "CATEGORY LABEL": "n"
  },
  {
    "PRIMARY SEQUENCE": "SAGGSAGGSAGGDVNSPNIPPVLTVEPVEVLDPGGGGLRRRVVYVAPGGIVLETEERPESAGGSAGGSAGGS [r10_261_JUSTAS]",
    "CATEGORY LABEL": "n"
  },
  {
    "PRIMARY SEQUENCE": "SMDIKVTKLPDGSYRITASVPPDTKPITIPVPKTGKPVVITTEPGKLTVTTDDEEVVKEVAEAIKKGELLSA [r9_515_JUSTAS]",
    "CATEGORY LABEL": "n"
  },
  {
    "PRIMARY SEQUENCE": "SAGGSAGGSAGGSPNYRLEIRVDIKVSYRYDLFTGEPIEPEVEIEVEIRLIPEGAIVDESAGGSAGGSAGGS [r4_175_TrMRF]",
    "CATEGORY LABEL": "y"
  },
  {
    "PRIMARY SEQUENCE": "SAGGSAGGSAGGPEVEVFYERGPDGPLKVVVVVRNPDTPEVTVLVADLEPEKALEFLEALSAGGSAGGSAGG [r7_105_TrMRF]",
    "CATEGORY LABEL": "y"
  },
  {
    "PRIMARY SEQUENCE": "SAGGSAGGSAGGPPGAVERGYLVVRFRVYRPEPAEPVGELTVYVRVPPPEPEEDGSFRFHSAGGSAGGSAGG [r7_959_TrMRF]",
    "CATEGORY LABEL": "y"
  },
  {
    "PRIMARY SEQUENCE": "SAGGSAGGTATLVLPAAAFPSRPDGSLGLEEIRDVARPIAQEAFGTDDITLDVESHPDGFVTITFSSAGGSA [r15_562_TrMRF]",
    "CATEGORY LABEL": "n"
  },
  {
    "PRIMARY SEQUENCE": "SAGGSADADDVTIVINMFRNPNNKGWFFRIEIQDPDKEREIFMPFDDIPKFQEAGLKIEITEWYPFSAGGSA [r15_783_TrROS]",
    "CATEGORY LABEL": "y"
  }
]

---

Test: folding stability dG unfold from chymotrypsin proteolysis; higher = more stable
Kind request: treat 0.4 kcal/mol as inclusive, so folding stability dG unfold at 0.4 kcal/mol or higher is TRUE, anything lower is FALSE.

[
  {
    "PRIMARY SEQUENCE": "SAGGSAGGSAGGSMELKLKVVEKTETRSATPGEDEPLPGNSSVTYEGNTLTTTTLVLVPLSAGGSAGGSAGG [r7_506_JUSTAS]",
    "CATEGORY LABEL": "FALSE"
  },
  {
    "PRIMARY SEQUENCE": "SAGGSAGGSAEEVTVTVKIERTTEDGEKVEETITVTVPAEKLDELKKAAEEAGFTVVEVTPSAGGSAGGSAG [r3_453_TrROS_Hall]",
    "CATEGORY LABEL": "TRUE"
  },
  {
    "PRIMARY SEQUENCE": "SAGGSAGGPPPVRVTIETETTTTFPNGTPRTTTNTVVLDAPEEEAEAAVAAIPASVVKSVARTGSAGGSAGG [r6_985_JUSTAS]",
    "CATEGORY LABEL": "TRUE"
  },
  {
    "PRIMARY SEQUENCE": "SAGGMSFTMTVPPSNPNQVVGTNVPVSDVPPNYAYTLHFPNTGTTTTIPVSQAEEVKAQPHIDEITATSAGG [r19_302_JUSTAS]",
    "CATEGORY LABEL": "FALSE"
  },
  {
    "PRIMARY SEQUENCE": "SAGGSAGGSAGGSKPEVIKLKVKKIKVKKKKYDKNGKLVEEEEKEITVETTVFVPKEDLSAGGSAGGSAGGS [r4_425_TrROS_Hall]",
    "CATEGORY LABEL": "FALSE"
  },
  {
    "PRIMARY SEQUENCE": "SAGGSAGGSAGGKKVTITLKDANGKELKIEVKEGEEVTIEVGGKKYKLTVKDGKIELKPVSAGGSAGGSAGG [r7_510_TrROS_Hall]",
    "CATEGORY LABEL": "TRUE"
  }
]

---

Assay: folding stability dG unfold from trypsin proteolysis; higher = more stable

[
  {
    "PRIMARY SEQUENCE": "SAGGSAGGSAGKDKGQKEVPEINIRIEPVNFHWEYDKGNGKPKSIHFMFKIRYPNGREITSAGGSAGGSAGG [r11_890_TrROS]",
    "folding stability dG unfold": "1.24 kcal/mol"
  },
  {
    "PRIMARY SEQUENCE": "SAGGKEVVIVFPLPENFEAEIFIPDRPVVRLENGLLVAVAPENVPALIVIRNPNGEELVLPVELLDLSAGGS [r8_72_TrMRF]",
    "folding stability dG unfold": "1.27 kcal/mol"
  },
  {
    "PRIMARY SEQUENCE": "SAGGSMPPIVASVVEVRFYRFEEEDRERLEAEVTLKLKDGSTATIRLEFPDLSEEELLKTVEETLLSAGGSA [r2_26_JUSTAS]",
    "folding stability dG unfold": "1.78 kcal/mol"
  },
  {
    "PRIMARY SEQUENCE": "SAGGSAGGSDVEVEEVDVEIEVNGKKFKVKIYRNKKDKNRYYIFFEDTGKVFEIDKNGNIRPLSAGGSAGGS [r12_580_TrROS_Hall]",
    "folding stability dG unfold": "2.74 kcal/mol"
  },
  {
    "PRIMARY SEQUENCE": "SLRDIAKEIAEKAGMDPEDVEINVETEPDPKNGKPRLRITVSIEHPNRKYMIKIDFQDGEIEEIMPLEDISA [r9_1219_TrROS]",
    "folding stability dG unfold": "1.66 kcal/mol"
  },
  {
    "PRIMARY SEQUENCE": "SAGGSAGGSAGGGMARAEKLPSSWTLVSVTPRDGSTVVTYKLPDGSTLTLDLRPDSYDGASAGGSAGGSAGG [r7_775_JUSTAS]",
    "folding stability dG unfold": "0.436 kcal/mol"
  },
  {
    "PRIMARY SEQUENCE": "SAMEKPLETLEIPIPGLPVTVKITIYPSHIEKAKESGIPEITVEALLTIELPDGSKVEKKIPLTVKIPGSAG [r14_100_JUSTAS]",
    "folding stability dG unfold": "1.58 kcal/mol"
  }
]
